Kindly state pKi for each of the entries shown.
# system_tested: Acetylcholinesterase (Homo sapiens)
# Sequence (P22303 whole entry): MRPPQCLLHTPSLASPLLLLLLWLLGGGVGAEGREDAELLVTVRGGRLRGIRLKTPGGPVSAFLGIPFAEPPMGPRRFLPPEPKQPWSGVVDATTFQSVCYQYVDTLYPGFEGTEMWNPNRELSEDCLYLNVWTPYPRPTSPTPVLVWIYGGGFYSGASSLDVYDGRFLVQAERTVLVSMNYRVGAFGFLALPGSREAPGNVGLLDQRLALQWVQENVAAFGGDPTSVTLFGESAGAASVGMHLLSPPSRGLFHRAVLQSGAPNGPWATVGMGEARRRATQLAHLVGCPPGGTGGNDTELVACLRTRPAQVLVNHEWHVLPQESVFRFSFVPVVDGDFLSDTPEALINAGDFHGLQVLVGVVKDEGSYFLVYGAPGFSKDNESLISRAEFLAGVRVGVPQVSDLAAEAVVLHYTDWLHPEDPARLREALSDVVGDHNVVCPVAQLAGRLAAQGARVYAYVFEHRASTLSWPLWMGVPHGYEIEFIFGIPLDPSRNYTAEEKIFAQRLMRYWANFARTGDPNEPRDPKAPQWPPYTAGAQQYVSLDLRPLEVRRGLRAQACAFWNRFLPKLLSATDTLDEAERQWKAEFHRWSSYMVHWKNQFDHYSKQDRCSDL
pKi: −log10 of the molar value.

The cases that follow already have their pKi on record.
# smiles_text, pKi
data = [
    ("O=[N+]([O-])c1ccc([C@@H]2CC(c3c4ccccc4cc4ccccc34)=NN2)cc1", "< 7.00"),
    ("Oc1ccc([C@@H]2CC(c3c4ccccc4cc4ccccc34)=NN2)cc1", "< 7.00"),
]

Next item in the queue.
compound Cc1ccc([C@@H]2CC(c3c4ccccc4cc4ccccc34)=NN2)cc1 , pKi observed: < 7.00
